subject of test: choline kinase beta (CKβ) (Homo sapiens, UniProt Q9Y259)
Construct: recombinant CKβ, in vitro phosphorylated by PKA (Ser39/Ser40)
Sequence (Q9Y259 2-395): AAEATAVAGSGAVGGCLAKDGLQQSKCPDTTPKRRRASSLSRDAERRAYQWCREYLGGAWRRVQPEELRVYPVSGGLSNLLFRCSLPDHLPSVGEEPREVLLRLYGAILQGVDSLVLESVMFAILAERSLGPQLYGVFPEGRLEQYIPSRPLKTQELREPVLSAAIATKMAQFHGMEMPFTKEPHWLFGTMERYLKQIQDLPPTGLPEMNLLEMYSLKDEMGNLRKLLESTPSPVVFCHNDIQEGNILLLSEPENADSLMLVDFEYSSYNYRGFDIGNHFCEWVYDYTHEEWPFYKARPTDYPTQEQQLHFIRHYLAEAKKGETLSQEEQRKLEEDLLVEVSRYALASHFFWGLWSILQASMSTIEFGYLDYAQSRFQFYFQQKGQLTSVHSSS
test: PK-LDH coupled enzyme assay, IC50 at […] choline converted to Ki
pKi: −log10 of the molar value.
outcome measure: pKi

{"molecule": "C[N+]1(C)CCOC(O)(c2ccc(-c3ccc(C4(O)C[N+](C)(C)CCO4)cc3)cc2)C1 (stereo not shown)", "subject of test": "choline kinase beta (CKβ) (Homo sapiens, UniProt Q9Y259)", "outcome measure": "pKi", "reported": 5.33}

The measurements presented in this section are drawn from paper PMC4858151.
